Test system: biotinyl-Leu-oxazolone
Assay: self-aminoacylation, catalytic enhancement (BLO) (fold over background); higher = more active; k-Seq, kA / k0A0; sequences stand for … in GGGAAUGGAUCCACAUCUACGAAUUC…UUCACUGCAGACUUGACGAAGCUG
Fewer inactive variants are shown than the library holds.
ATTRIBUTE_MEASURED: self-aminoacylation
// return just the number, without any unit appended

[
  {
    "CONSTRUCT_SEQUENCE": "AUUCAACUAGGUCAUCGGGUU [Fam2.2 aminoacylation ribozyme variant]",
    "self-aminoacylation": 1.95
  }
]

The observed self-aminoacylation for CCGCCCUUCAAGCAAUCGGUC [Fam1B.1 aminoacylation ribozyme variant] when tested with biotinyl-Leu-oxazolone stands at 2.13

Reported biotinyl-Leu-oxazolone self-aminoacylation for item AAGUUUGCUAACAAUCGCAAG [Fam3.1 aminoacylation ribozyme variant] was 0.591

The reported self-aminoacylation value, biotinyl-Leu-oxazolone, for AAGUUGGCUUAUAGUCGCAAG [Fam3.1 aminoacylation ribozyme variant] reads 1.64

Query AUUCCCCUGGUCACCGAGUGA [Fam2.1 aminoacylation ribozyme variant] on biotinyl-Leu-oxazolone; self-aminoacylation returned: 11.1

The reported biotinyl-Leu-oxazolone self-aminoacylation of CGACACUCCAAGCAAUCGGUC [Fam1B.1 aminoacylation ribozyme variant] is 0.842

The observed self-aminoacylation for CUAGUUCAAACAAUGGGUCUG [Fam1A.1 aminoacylation ribozyme variant] when tested with biotinyl-Leu-oxazolone stands at 1.08

The reported biotinyl-Leu-oxazolone self-aminoacylation of CCACACUUCAAUCAAUCGGUA [Fam1B.1 aminoacylation ribozyme variant] is 0.609
